- System: Nucleic Acid
- test_description: Induction of Escherichia coli DNA cleavage at 25 mg after 24 hrs by agarose gel electrophoresis method
- Assay type: nucleic-acid assay
The source made the active and inactive calls. The calls are words filed in the database; no cut-off is given here.
parameter: Activity

- O=c1cc(COc2ccc(-c3cc(-c4ccccc4)nc(S)n3)cc2)c2c(ccc3ccccc32)o1: Active
- O=c1cc(COc2ccc(-c3cc(-c4ccccc4)nc(O)n3)cc2)c2ccc3ccccc3c2o1: Active
- Cc1ccc2c(COc3ccc(-c4cc(-c5ccccc5)nc(N)n4)cc3)cc(=O)oc2c1: Active
- Cc1ccc2c(COc3ccc(-c4cc(-c5ccccc5)nc(S)n4)cc3)cc(=O)oc2c1: Active
- Cc1ccc2c(COc3ccc(-c4cc(-c5ccccc5)nc(O)n4)cc3)cc(=O)oc2c1: Active
- O=c1cc(COc2ccc(-c3cc(-c4ccccc4)nc(O)n3)cc2)c2c(ccc3ccccc32)o1: Active
- Cc1ccc2oc(=O)cc(COc3ccc(-c4cc(-c5ccccc5)nc(O)n4)cc3)c2c1: Active
- O=c1cc(COc2ccc(-c3cc(-c4ccccc4)nc(O)n3)cc2)c2cc(Cl)ccc2o1: Active

get_value(item= O=c1cc(COc2ccc(-c3cc(-c4ccccc4)nc(S)n3)cc2)c2ccc3ccccc3c2o1 , readout=Activity) returns Active

====

- Tested on: Rattus norvegicus
- test_description: Analgesic activity in albino Wistar rat assessed as reaction time required for tail flicking at 25 mg/kg, po after 90 mins by tail-flick method (reference value: 3.87 +/- 0.355 sec)
- Format: functional
For each record, check the reported Time: if it is below 6 s write True, else write False.

Req: Threshold test, Time < 6 s: Cc1ccc2c(COc3ccc(-c4cc(-c5ccccc5)nc(O)n4)cc3)cc(=O)oc2c1
Resp: False

Req: Threshold test, Time < 6 s: O=c1cc(COc2ccc(-c3cc(-c4ccccc4)nc(O)n3)cc2)c2cc(Cl)ccc2o1
Resp: True

Req: Threshold test, Time < 6 s: Cc1ccc2oc(=O)cc(COc3ccc(-c4cc(-c5ccccc5)nc(N)n4)cc3)c2c1
Resp: False

Req: Threshold test, Time < 6 s: Cc1ccc2c(COc3ccc(-c4cc(-c5ccccc5)nc(N)n4)cc3)cc(=O)oc2c1
Resp: False

Req: Threshold test, Time < 6 s: Cc1ccc2oc(=O)cc(COc3ccc(-c4cc(-c5ccccc5)nc(O)n4)cc3)c2c1
Resp: False

====

- Tested on: Rattus norvegicus
- test_description: Analgesic activity in albino Wistar rat assessed as reaction time required for tail flicking at 25 mg/kg, po after 30 mins by tail-flick method (reference value: 3.97 +/- 0.287 sec)
- Type: functional
parameter: Time (s)
Just the number in s, nothing appended.

get_value(item= O=c1cc(COc2ccc(-c3cc(-c4ccccc4)nc(S)n3)cc2)c2cc(Cl)ccc2o1 , readout=Time) returns 5.1

get_value(item= Cc1ccc2c(COc3ccc(-c4cc(-c5ccccc5)nc(N)n4)cc3)cc(=O)oc2c1 , readout=Time) returns 5.1

get_value(item= O=c1cc(COc2ccc(-c3cc(-c4ccccc4)nc(O)n3)cc2)c2c(ccc3ccccc32)o1 , readout=Time) returns 5

get_value(item= O=c1cc(COc2ccc(-c3cc(-c4ccccc4)nc(S)n3)cc2)c2c(ccc3ccccc32)o1 , readout=Time) returns 4.25

get_value(item= Nc1nc(-c2ccccc2)cc(-c2ccc(OCc3cc(=O)oc4ccc(Cl)cc34)cc2)n1 , readout=Time) returns 5.02

get_value(item= Cc1c(N(C)CS(=O)(=O)[O-])c(=O)n(-c2ccccc2)n1C.[Na+] [DIPYRONE SODIUM] , readout=Time) returns 5.77

get_value(item= Cc1ccc2oc(=O)cc(COc3ccc(-c4cc(-c5ccccc5)nc(S)n4)cc3)c2c1 , readout=Time) returns 4.5

get_value(item= Cc1ccc2oc(=O)cc(COc3ccc(-c4cc(-c5ccccc5)nc(O)n4)cc3)c2c1 , readout=Time) returns 4.48

get_value(item= Cc1ccc2c(COc3ccc(-c4cc(-c5ccccc5)nc(S)n4)cc3)cc(=O)oc2c1 , readout=Time) returns 4.5

get_value(item= O=c1cc(COc2ccc(-c3cc(-c4ccccc4)nc(O)n3)cc2)c2ccc3ccccc3c2o1 , readout=Time) returns 4.75

get_value(item= Cc1ccc2c(COc3ccc(-c4cc(-c5ccccc5)nc(O)n4)cc3)cc(=O)oc2c1 , readout=Time) returns 4.5

get_value(item= Nc1nc(-c2ccccc2)cc(-c2ccc(OCc3cc(=O)oc4c3ccc3ccccc34)cc2)n1 , readout=Time) returns 4.04

get_value(item= O=c1cc(COc2ccc(-c3cc(-c4ccccc4)nc(S)n3)cc2)c2ccc3ccccc3c2o1 , readout=Time) returns 4.52

get_value(item= O=c1cc(COc2ccc(-c3cc(-c4ccccc4)nc(O)n3)cc2)c2cc(Cl)ccc2o1 , readout=Time) returns 4.02

get_value(item= Cc1ccc2oc(=O)cc(COc3ccc(-c4cc(-c5ccccc5)nc(N)n4)cc3)c2c1 , readout=Time) returns 4.75

get_value(item= Nc1nc(-c2ccccc2)cc(-c2ccc(OCc3cc(=O)oc4ccc5ccccc5c34)cc2)n1 , readout=Time) returns 4

====

- System: Rattus norvegicus
- test_description: Acute toxicity in albino Wistar rat assessed as mortality at up to 3 g/kg, po after 24 hrs
- Format: organism-based
- experimental_context: in vivo, 3000 mg/kg
parameter: Activity

* O=c1cc(COc2ccc(-c3cc(-c4ccccc4)nc(O)n3)cc2)c2c(ccc3ccccc32)o1 | Non-toxic
* Cc1ccc2c(COc3ccc(-c4cc(-c5ccccc5)nc(S)n4)cc3)cc(=O)oc2c1 | Non-toxic
* Cc1ccc2oc(=O)cc(COc3ccc(-c4cc(-c5ccccc5)nc(N)n4)cc3)c2c1 | Non-toxic
* O=c1cc(COc2ccc(-c3cc(-c4ccccc4)nc(O)n3)cc2)c2ccc3ccccc3c2o1 | Non-toxic
* Cc1ccc2c(COc3ccc(-c4cc(-c5ccccc5)nc(N)n4)cc3)cc(=O)oc2c1 | Non-toxic
* Cc1ccc2c(COc3ccc(-c4cc(-c5ccccc5)nc(O)n4)cc3)cc(=O)oc2c1 | Non-toxic

get_value(item= Nc1nc(-c2ccccc2)cc(-c2ccc(OCc3cc(=O)oc4ccc5ccccc5c34)cc2)n1 , readout=Activity) returns Non-toxic

get_value(item= O=c1cc(COc2ccc(-c3cc(-c4ccccc4)nc(S)n3)cc2)c2c(ccc3ccccc32)o1 , readout=Activity) returns Non-toxic

get_value(item= O=c1cc(COc2ccc(-c3cc(-c4ccccc4)nc(S)n3)cc2)c2cc(Cl)ccc2o1 , readout=Activity) returns Non-toxic

====

- System: Rattus norvegicus
- test_description: Acute toxicity in albino Wistar rat assessed as haemorrhagic spots at up to 3 g/kg, po after 24 hrs
- Assay type: organism-based
- experimental_context: in vivo, 3000 mg/kg
parameter: Activity

Reference set (8 entries):
- O=c1cc(COc2ccc(-c3cc(-c4ccccc4)nc(O)n3)cc2)c2ccc3ccccc3c2o1: Non-toxic
- Cc1ccc2c(COc3ccc(-c4cc(-c5ccccc5)nc(O)n4)cc3)cc(=O)oc2c1: Non-toxic
- Cc1ccc2oc(=O)cc(COc3ccc(-c4cc(-c5ccccc5)nc(N)n4)cc3)c2c1: Non-toxic
- O=c1cc(COc2ccc(-c3cc(-c4ccccc4)nc(S)n3)cc2)c2c(ccc3ccccc32)o1: Non-toxic
- O=c1cc(COc2ccc(-c3cc(-c4ccccc4)nc(O)n3)cc2)c2c(ccc3ccccc32)o1: Non-toxic
- O=c1cc(COc2ccc(-c3cc(-c4ccccc4)nc(O)n3)cc2)c2cc(Cl)ccc2o1: Non-toxic
- Nc1nc(-c2ccccc2)cc(-c2ccc(OCc3cc(=O)oc4c3ccc3ccccc34)cc2)n1: Non-toxic
- O=c1cc(COc2ccc(-c3cc(-c4ccccc4)nc(S)n3)cc2)c2cc(Cl)ccc2o1: Non-toxic

get_value(item= Cc1ccc2oc(=O)cc(COc3ccc(-c4cc(-c5ccccc5)nc(O)n4)cc3)c2c1 , readout=Activity) returns Non-toxic

get_value(item= Nc1nc(-c2ccccc2)cc(-c2ccc(OCc3cc(=O)oc4ccc(Cl)cc34)cc2)n1 , readout=Activity) returns Non-toxic

get_value(item= Cc1ccc2c(COc3ccc(-c4cc(-c5ccccc5)nc(N)n4)cc3)cc(=O)oc2c1 , readout=Activity) returns Non-toxic

get_value(item= Cc1ccc2oc(=O)cc(COc3ccc(-c4cc(-c5ccccc5)nc(S)n4)cc3)c2c1 , readout=Activity) returns Non-toxic

get_value(item= Nc1nc(-c2ccccc2)cc(-c2ccc(OCc3cc(=O)oc4ccc5ccccc5c34)cc2)n1 , readout=Activity) returns Non-toxic

get_value(item= Cc1ccc2c(COc3ccc(-c4cc(-c5ccccc5)nc(S)n4)cc3)cc(=O)oc2c1 , readout=Activity) returns Non-toxic

get_value(item= O=c1cc(COc2ccc(-c3cc(-c4ccccc4)nc(S)n3)cc2)c2ccc3ccccc3c2o1 , readout=Activity) returns Non-toxic

====

- Tested on: Rattus norvegicus
- test_description: Acute toxicity in albino Wistar rat assessed as ulceration at up to 3 g/kg, po after 24 hrs
- Format: organism-based
- experimental_context: in vivo, 3000 mg/kg
parameter: Activity

Reference set (6 entries):
• O=c1cc(COc2ccc(-c3cc(-c4ccccc4)nc(S)n3)cc2)c2ccc3ccccc3c2o1 = Non-toxic
• O=c1cc(COc2ccc(-c3cc(-c4ccccc4)nc(S)n3)cc2)c2cc(Cl)ccc2o1 = Non-toxic
• Cc1ccc2oc(=O)cc(COc3ccc(-c4cc(-c5ccccc5)nc(S)n4)cc3)c2c1 = Non-toxic
• Nc1nc(-c2ccccc2)cc(-c2ccc(OCc3cc(=O)oc4c3ccc3ccccc34)cc2)n1 = Non-toxic
• Cc1ccc2c(COc3ccc(-c4cc(-c5ccccc5)nc(O)n4)cc3)cc(=O)oc2c1 = Non-toxic
• O=c1cc(COc2ccc(-c3cc(-c4ccccc4)nc(O)n3)cc2)c2c(ccc3ccccc32)o1 = Non-toxic

With Rattus norvegicus as the test system, Nc1nc(-c2ccccc2)cc(-c2ccc(OCc3cc(=O)oc4ccc(Cl)cc34)cc2)n1 showed Activity of Non-toxic

With Rattus norvegicus as the test system, Cc1ccc2oc(=O)cc(COc3ccc(-c4cc(-c5ccccc5)nc(O)n4)cc3)c2c1 showed Activity of Non-toxic

With Rattus norvegicus as the test system, O=c1cc(COc2ccc(-c3cc(-c4ccccc4)nc(O)n3)cc2)c2cc(Cl)ccc2o1 showed Activity of Non-toxic

With Rattus norvegicus as the test system, Cc1ccc2c(COc3ccc(-c4cc(-c5ccccc5)nc(N)n4)cc3)cc(=O)oc2c1 showed Activity of Non-toxic

meta.source: ChEMBL document CHEMBL1165909
